Test system: NCI-H460 lung
Give your call using only these classes: true (1) = active, false (0) = inactive

Worked set:
[
  {
    "compound": "Cc1cc(CCl)c(C)cc1CCl",
    "qualitative label": "true (1)"
  },
  {
    "compound": "O=C(NN1C(=O)CSC1c1cccc(Cl)c1)C(O)c1ccccc1 (stereo unspecified)",
    "qualitative label": "false (0)"
  },
  {
    "compound": "COc1cccc(CNc2ncnc3c2ncn3C2OC(CO)C(O)C2O)c1O (stereo unspecified)",
    "qualitative label": "false (0)"
  }
]

Outcome logged for COc1cc(OCc2cccc(-c3ccccc3)c2C)cc(OC)c1CN1CCCCC1C(=O)NCCOCCOCCN (stereo unspecified) in this assay: false (0)

// param item: "Cc1cn(-c2cccc(NC(=O)c3ccc(C)c(Nc4nccc(-c5cccnc5)n4)c3)c2)cn1" ; yields the recorded call false (0)

Test call, this compound: COc1cccc2c1C(=O)c1c(O)c3c(c(O)c1C2=O)C[C@@](O)(C(=O)COC(=O)c1ccccc1)C[C@@H]3OC1CC(N)C(O)C(C)O1 (stereo partly specified) true (1)

* * *

System: MCF7 breast
Test: NCI tumour cell line growth inhibition, 48 h
TGI by entry:

Before answering, review these 3 worked examples.
[
  {
    "compound": "Nc1nc2ccc(Sc3ccc4nc(N)[nH]c(=O)c4c3)cc2c(=O)[nH]1",
    "study target": "MCF7 breast",
    "TGI": "> 100 µM"
  },
  {
    "compound": "CCOC(=O)NC(Nc1cc(Cl)ccc1OC)(C(F)(F)F)C(F)(F)F",
    "study target": "MCF7 breast",
    "TGI": "> 100 µM"
  },
  {
    "compound": "CN=C(Nc1ccc(OC)c2ccccc12)SC",
    "study target": "MCF7 breast",
    "TGI": "> 10 µM"
  }
]

Consider the additional compound presented here.
Dear colleague, please send me the reported TGI for COC(=O)C1Cc2c(OC)ccc(OC)c2C(O)C1C(=O)OC (centres undefined) when you can. > 100 µM

* * *

Each item that follows carries a reported TGI.
Tested on: MDA-MB-435
Experiment: NCI tumour cell line growth inhibition, 48 h

[
  {
    "compound": "CCC(=O)N/S(=N/S(=O)(=O)c1ccccc1)C(Cl)(Cl)Cl (stereo not drawn)",
    "TGI": "> 100 µM"
  },
  {
    "compound": "COC(=O)CCC1(CCC(=O)OC)CCCCCCC(CCC(=O)OC)(CCC(=O)OC)C(=O)C1=O",
    "TGI": "> 100 µM"
  }
]

Please look at the following compound next.
Specify reported TGI for the compound shown: "CC(=O)c1cccc(NC(=O)C(=O)c2c(O)c3ccccc3oc2=O)c1" > 100 µM

* * *

Tested on: RXF 393 renal
Assay: NCI tumour cell line growth inhibition, 48 h
Measured log10 of TGI values are reported for all entries that follow.
Please be aware that the numbers have been log10-transformed from TGI in µM.

Consider the compound "O=C1C(CO)=C[C@H](O)[C@H]2O[C@@H]12" and give its recorded log10 of TGI. 2.60

Respond only with log10 of TGI recorded for "c1cc2c3c(c1)c1cc4c(cc1c[n+]3CC2)OCO4" 1.51

For the compound "Cc1cc(N/N=C/c2nc(-c3ccc(Cl)cc3)oc2C)c2cc(Br)ccc2n1" , give its measured log10 of TGI value. 1.24

Please indicate log10 of TGI recorded for "Clc1ccc(-c2cc(-c3cc4cc(Br)ccc4nc3Cl)on2)cc1" 1.64

Hello, please tell me recorded log10 of TGI for this one: CC(C)(C)OC(=O)N1NC(c2ccccc2)CC1c1ccccc1 (stereo unspecified) 1.77

Determine its reported log10 of TGI: "C[C@@H](C[C@H]1OC(C)(C)O[C@@H]1C(C)(C)O)[C@H]1CC=C2[C@]3(C)[C@H](O)C[C@H]4C(C)(C)[C@H](O)CC[C@]4(C)[C@H]3CC[C@]21C" 1.08

In one line, give reported log10 of TGI of the entry "O=[N+]([O-])C(/C(Cl)=C(\Cl)Br)=C(/Cl)SCc1ccccc1" . 0.69

Tell me log10 of TGI reported for "O=C1c2cccnc2-c2nc(-c3cccnc3)cc3c2c1nc1ccccc13" 1.05

* * *

System: OVCAR-4 ovarian
Test: NCI tumour cell line growth inhibition, 48 h
Collected TGI values appear next to each entry.

[
  {
    "structure string": "COc1cc2c(c3c1c(=O)c1ccccc1n3C)C=CC(C)(C)O2",
    "study target": "OVCAR-4 ovarian",
    "TGI": "> 100 µM"
  },
  {
    "structure string": "O=C1c2ccccc2C(=O)C12CCc1ccccc12",
    "study target": "OVCAR-4 ovarian",
    "TGI": "> 100 µM"
  }
]

Could you now look at the following molecule, please?
Please give measured TGI of the following entry: "O=C(c1cccs1)c1nccc2c1cnc1ccccc12" > 100 µM

* * *

This section presents compounds with their documented TGI values.
Tested on: SF-539 CNS
Assay: NCI tumour cell line growth inhibition, 48 h

// worked examples, TGI included
[
  {
    "compound": "O=[N+]([O-])c1ccc(C2ON=C(c3ccccc3)N2C23CC4CC(CC(C4)C2)C3)cc1 (stereo not given)",
    "study target": "SF-539 CNS",
    "measured value": "> 10 µM"
  },
  {
    "compound": "CC(=O)c1cccc(NC(=O)C(=O)c2c(O)c3ccccc3oc2=O)c1",
    "study target": "SF-539 CNS",
    "measured value": "> 100 µM"
  },
  {
    "compound": "CC1CC2(S(=O)(=O)c3ccccc3)ON1CC2S(=O)(=O)c1ccccc1 (stereo not given)",
    "study target": "SF-539 CNS",
    "measured value": "> 100 µM"
  },
  {
    "compound": "CN(Cc1ccc(F)cc1)c1ccc(CO)c(Cl)c1",
    "study target": "SF-539 CNS",
    "measured value": "> 100 µM"
  }
]

Provide SF-539 CNS TGI reading for C[N+](C)(C)CC1CCCCC1=O (stereo not given) . > 100 µM

* * *

System: OVCAR-5 ovarian
Assay: NCI tumour cell line growth inhibition, 48 h
measurement kind: GI50

# annotated cases, reported GI50 shown
[
  {
    "molecule": "COc1cc(OC)c2sc(-c3ccc(-n4cncc4-c4ccc(OC)c(OC)c4)cc3)nc2c1",
    "GI50": "> 100 µM"
  },
  {
    "molecule": "COc1ccc(Nc2nc(Nc3cc(C)[nH]n3)c3cc(OC)c(OC)cc3n2)cc1",
    "GI50": "2 µM"
  }
]

Please give the documented GI50 of "Cc1ccc(S(=O)(=O)c2nc(-c3ccccc3)oc2S(C)(=O)=O)cc1" 2.12 µM

Entry "CCOc1cc(/C=C/C(=O)C(C(=O)/C=C/c2ccc(OC(=O)CNc3nc4ccccc4[nH]3)c(OCC)c2)C(=O)CNc2nc3ccccc3[nH]2)ccc1OC(=O)CNc1nc2ccccc2[nH]1" needs its GI50 filled in; supply it. 2.09 µM

Identify measured GI50 corresponding to CC(=O)OC(C(=O)[O][Sn]([CH3])([CH3])[CH3])c1ccccc1 (stereo unspecified) > 100 µM

Assign GI50 to the following record: "Cc1cc(CCl)c(C)cc1CCl" 2.94 µM

* * *

Tested on: MCF7 breast
Assay: NCI tumour cell line growth inhibition, 48 h
Measured TGI, listed per entry.

Known TGI results, listed for orientation:
[
  {
    "compound": "Oc1[nH]c2ccccc2c1C1=Nc2ccccc2/C1=N\\OCCOC1OCC(O)C(O)C1O (stereo not given)",
    "TGI": "> 100 µM"
  },
  {
    "compound": "Nc1[nH]c(=O)nc2snnc12",
    "TGI": "> 100 µM"
  },
  {
    "compound": "CC(=O)C(C)C(=O)N1C(=O)N(C)C2(C)N(C)C(=O)NC12C (stereo not given)",
    "TGI": "> 100 µM"
  },
  {
    "compound": "COc1cccc(CNc2ncnc3c2ncn3C2OC(CO)C(O)C2O)c1O (stereo not given)",
    "TGI": "> 100 µM"
  },
  {
    "compound": "Cc1ccc(O)c(C2=CC3=NNC(=O)C3C(c3cccc(Cl)c3)C2)c1 (stereo not given)",
    "TGI": "47.1 µM"
  }
]

Consider the compound "CCOC(=O)c1cn2c(n1)sc1cc(OC)ccc12" . State its measured TGI. > 100 µM

Fill in reported TGI for this entry: "O=C1/C(=C\c2ccco2)Oc2ccccc21" > 100 µM

Read off the recorded TGI for O=C(NN1C(=O)CSC1c1cccc(Cl)c1)C(O)c1ccccc1 (stereo not given) > 100 µM

// fetch TGI given entry COC(=O)c1c(CC(Cc2ccc3c(c2)CCCC3)C(=O)O)ccc2c1CCCC2 (stereo not given) 84.1 µM

Item "CCOC(=O)/C=C/c1c(C)[nH]c(=O)[nH]c1=O" : provide TGI > 250 µM
